Consider the following molecules and their measured melting point readings.

Below: 8 molecules and their reported melting point.
| MOLECULE | melting point |
| --- | --- |
| CNc1ccncn1 | 77 to 79 °C |
| COc1ccc(Cl)cc1-c1nnc(N)o1 | 201 to 203 °C |
| CC(Cl)C(=O)c1c[nH]c2ncccc12 (configuration not stated) | 162 to 164 °C |
| CC(Cl)C(=O)Nc1cccc(Cl)c1Cl (configuration not stated) | 96 to 98 °C |
| O=C(O)CNC(=O)COc1ccccc1 | 89 to 91 °C |
| O=C(O)CSc1ccc2c(c1)CCC2 | 64 to 66 °C |
| CNC(=O)CNc1ccccc1C | 112 to 114 °C |
| Sc1nnc(NC2CCCCC2)s1 | 144 to 146 °C |

// returns reported melting point for input COc1ccc2c(c1)NCCCC2
46 to 48 °C

GET /values?readout=melting point&item= CCCC(C)NC(=O)C(C)Cl (configuration not stated)
51 to 53 °C

Would you kindly share the measured melting point for Cn1c(=O)n(C)c2cc(Br)ccc21 ?
163 to 165 °C

Requested read-out: melting point. Entry: CC(NC(=O)c1[nH]nc2ccccc12)C(=O)O (configuration not stated)
208 to 210 °C

For the molecule CC(C)(C)Oc1ncccc1O , what melting point is on record?
86 to 88 °C

Consider the molecule shown here: Cc1nc(-c2ccc(C(C)N)cc2)cs1 (configuration not stated) What is its recorded melting point?
74 to 76 °C

Please look up its melting point: O=C(O)CNC(=O)Nc1ccc(Br)cc1
192 to 194 °C

Quick check: melting point of N#Cc1ccc(CS(N)(=O)=O)cc1 ?
154 to 156 °C

Reported melting point, molecule COc1cccc(C(N)C(=O)O)c1 (configuration not stated) : ____
198 to 200 °C

Value lookup for melting point; key = CC(Oc1cccnc1N)c1ccccc1 (configuration not stated)
83 to 85 °C

What measured melting point goes with CCOC(=O)c1c(C)n(C2CCCC2)c2ccc(O)cc12 ?
228 to 230 °C

Return reported melting point; argument: Cc1nn(-c2ccc(F)cc2F)c(C)c1CC(=O)O
163 to 165 °C
